src = ChEMBL document CHEMBL2021866

Each entry below lists one item and its recorded pEC50 value.
# tested_on: Hexokinase-4 (Homo sapiens)
# Sequence (P35557 whole entry): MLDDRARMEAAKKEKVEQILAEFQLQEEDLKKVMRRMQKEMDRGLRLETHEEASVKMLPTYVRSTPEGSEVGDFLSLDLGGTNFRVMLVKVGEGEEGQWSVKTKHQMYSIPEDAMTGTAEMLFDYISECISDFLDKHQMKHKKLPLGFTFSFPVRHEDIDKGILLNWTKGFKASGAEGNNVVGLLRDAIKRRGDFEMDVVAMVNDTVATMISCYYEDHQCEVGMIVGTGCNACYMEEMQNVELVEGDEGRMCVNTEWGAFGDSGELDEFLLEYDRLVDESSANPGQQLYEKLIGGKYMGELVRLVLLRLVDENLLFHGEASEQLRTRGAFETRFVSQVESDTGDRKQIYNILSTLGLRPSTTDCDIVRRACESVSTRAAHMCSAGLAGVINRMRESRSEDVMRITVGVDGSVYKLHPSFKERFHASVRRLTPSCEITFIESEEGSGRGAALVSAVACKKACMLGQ
# method_notes: Activation of human recombinant glucokinase expressed in Escherichia coli BL21(DE3) coexpressing G6PDH assessed as glucose 6-phosphate formation by spectrometric analysis
pEC50: −log10 of the molar value.
measurement_type: pEC50

>>> endpoint_value("COC1CCN(S(=O)(=O)c2ccc(Oc3cc(OCC=C(C)C)cc(C(=O)Nc4ncc(F)s4)c3)cc2)CC1")
7.19
>>> endpoint_value("CC(C)=CCOc1cc(Oc2ccc(S(=O)(=O)N3CCOCC3)cc2)cc(C(=O)Nc2ccn(C)n2)c1")
6.53
>>> endpoint_value("CC(C)=CCOc1cc(Oc2ccc(S(=O)(=O)C3CC3)cc2)cc(C(=O)Nc2ncc(F)s2)c1")
7.32
>>> endpoint_value("CC(C)=CCOc1cc(Oc2ccc(S(=O)(=O)N3CCOCC3)cc2)cc(C(=O)Nc2nccs2)c1")
7.32
>>> endpoint_value("CC(C)=CCOc1cc(Oc2ccc(S(=O)(=O)N3C[C@@H](C)O[C@@H](C)C3)cc2)cc(C(=O)Nc2ccn(C)n2)c1")
6.58
>>> endpoint_value("CC(C)=CCOc1cc(Oc2ccc(S(=O)(=O)C3CC3)cc2)cc(C(=O)Nc2nc(C(C)(C)C)cs2)c1")
6.05
>>> endpoint_value("CC(C)=CCOc1cc(Oc2ccc(S(=O)(=O)N3CC[C@H](F)C3)cc2)cc(C(=O)Nc2ccn(C)n2)c1")
7.08
>>> endpoint_value("CC(C)=CCOc1cc(Oc2ccc(S(=O)(=O)N3CC4CCC(C3)O4)cc2)cc(C(=O)Nc2nccs2)c1")
7.00
>>> endpoint_value("CC(C)=CCOc1cc(Oc2ccc(S(=O)(=O)C3CC3)cc2)cc(C(=O)NC2=NC(=O)CS2)c1")
6.92
>>> endpoint_value("CC(C)=CCOc1cc(Oc2ccc(S(=O)(=O)N3CC[C@H](F)C3)cc2)cc(C(=O)Nc2cc(C)n(C)n2)c1")
7.20
>>> endpoint_value("CC(C)=CCOc1cc(Oc2ccc(S(=O)(=O)N3CCOCC3)cc2)cc(C(=O)Nc2ncc(F)s2)c1")
7.28
>>> endpoint_value("CC(C)=CCOc1cc(Oc2ccc(S(=O)(=O)N3CC4CCC(C3)O4)cc2)cc(C(=O)Nc2ccn(C)n2)c1")
6.62
>>> endpoint_value("CC(C)=CCOc1cc(Oc2ccc(S(=O)(=O)N3CCOCC3)cc2)cc(C(=O)Nc2cc(C)n(C)n2)c1")
7.02
>>> endpoint_value("COC1CCN(S(=O)(=O)c2ccc(Oc3cc(OCC=C(C)C)cc(C(=O)Nc4nccs4)c3)cc2)CC1")
7.04
>>> endpoint_value("COC1CCN(S(=O)(=O)c2ccc(Oc3cc(OCC=C(C)C)cc(C(=O)Nc4ccn(C)n4)c3)cc2)CC1")
6.31
>>> endpoint_value("CC(C)=CCOc1cc(Oc2ccc(S(=O)(=O)N3C[C@@H](C)O[C@@H](C)C3)cc2)cc(C(=O)Nc2nccs2)c1")
7.20
